Hi there, I'd appreciate the recorded Emax for every entry that follows.
Target: human mAChR M1 (Homo sapiens)
Construct: host or cells: CHO-K1 cells (ATCC), stably transfected using Lipofectamine2000
Assay: mAChR M1 cell-based functional assay (calcium mobilization), PAM activity: increase in the EC20 acetylcholine response
Conditions: CHO-K1 cells expressing hM1; potentiation of EC20 acetylcholine response
Answer format: numeric, % implied, no suffix.

For Cn1nccc1-c1ccc(Cn2cc(C(=O)N[C@H]3CCOC[C@@H]3O)c3ncccc3c2=O)c(F)c1 [Compound A45] the compound record lists Emax as 70

For Cn1cc2c(-c3cc(F)c(Cn4cc(C(=O)N[C@H]5CCOC[C@@H]5O)c5sccc5c4=O)c(F)c3)cccc2n1 [Compound D30] the compound record lists Emax as 69

For Cn1cc(-c2ccc(Cn3cc(C(=O)N[C@H]4CCCC[C@@H]4O)c4ncccc4c3=O)cn2)cn1 [Compound A16] the compound record lists Emax as 68

For Cn1cc2c(-c3cc(F)c(Cn4cc(C(=O)NC5CC6(COC6)C5)c5occc5c4=O)c(F)c3)cccc2n1 [Compound D24] the compound record lists Emax as 70

For O=C(N[C@H]1CCC[C@@H]1O)c1cn(Cc2ccc(-n3cccn3)cc2)c(=O)n2ccnc12 [Compound B14] the compound record lists Emax as 70

For O=C(N[C@H]1CCOC[C@@H]1O)c1cn(Cc2c(F)cc(-c3ccns3)cc2F)c(=O)c2cccnc12 [Compound A50] the compound record lists Emax as 69

For Cn1cc(-c2ccc(Cn3cc(C(=O)N[C@H]4CCOC[C@@H]4O)c4ncccc4c3=O)cn2)cn1 [Compound A15] the compound record lists Emax as 68

For Cn1cc2c(-c3cc(F)c(Cn4cc(C(=O)N[C@H]5CCOC[C@@H]5O)c5ncccc5c4=O)c(F)c3)cccc2n1 [Compound A21] the compound record lists Emax as 72

====

Molecular target: human mAChR M1 (Homo sapiens, UniProt P11229)
Construct: host or cells: CHO-K1 cells (ATCC), stably transfected using Lipofectamine2000
Sequence (P11229 whole entry): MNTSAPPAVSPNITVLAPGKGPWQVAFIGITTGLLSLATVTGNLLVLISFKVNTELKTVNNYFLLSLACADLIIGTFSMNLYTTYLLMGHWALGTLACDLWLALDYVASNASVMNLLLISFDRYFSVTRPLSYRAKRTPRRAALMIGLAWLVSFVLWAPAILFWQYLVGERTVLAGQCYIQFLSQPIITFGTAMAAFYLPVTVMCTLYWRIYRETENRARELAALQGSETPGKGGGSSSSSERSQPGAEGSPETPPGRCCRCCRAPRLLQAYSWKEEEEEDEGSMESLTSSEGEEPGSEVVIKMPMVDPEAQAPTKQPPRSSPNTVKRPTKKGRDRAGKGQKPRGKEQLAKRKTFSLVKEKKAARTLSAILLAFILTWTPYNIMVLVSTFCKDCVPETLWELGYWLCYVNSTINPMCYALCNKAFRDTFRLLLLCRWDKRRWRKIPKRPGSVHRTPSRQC
Test: mAChR M1 cell-based functional assay (calcium mobilization), agonist activity upon compound addition
Details: CHO-K1 cells expressing hM1; relative to the maximum for acetylcholine
attribute measured: Emax

So the reported Emax for Cn1ccc(-c2ccc(Cn3cc(C(=O)N[C@H]4CCC[C@@H]4O)c4occc4c3=O)c(F)c2)n1 [Compound D8] , on human mAChR M1 (Homo sapiens, UniProt P11229), turned out to be < 5%

So the reported Emax for O=C(N[C@H]1CCOC[C@@H]1O)c1cn(Cc2c(F)cc(-c3cncs3)cc2F)c(=O)c2cccnc12 [Compound A49] , on human mAChR M1 (Homo sapiens, UniProt P11229), turned out to be < 5%

So the reported Emax for Cc1cc(C)cc(-c2ccc(Cn3cc(C(=O)N[C@H]4CCOC[C@@H]4O)c4ncccc4c3=O)c(F)c2)c1 [Compound A30] , on human mAChR M1 (Homo sapiens, UniProt P11229), turned out to be < 5%

So the reported Emax for Cc1cc(C)cc(-c2cc(F)c(Cn3cc(C(=O)N[C@H]4CCOC[C@@H]4O)c4ncccc4c3=O)c(F)c2)c1 [Compound A32] , on human mAChR M1 (Homo sapiens, UniProt P11229), turned out to be < 5%

====

Biological target: human mAChR M1 (Homo sapiens, UniProt P11229)
Construct: host or cells: CHO-K1 cells (ATCC), stably transfected using Lipofectamine2000
Test: mAChR M1 cell-based functional assay (calcium mobilization), PAM activity: increase in the EC20 acetylcholine response
Conditions: CHO-K1 cells expressing hM1; potentiation of EC20 acetylcholine response
attribute measured: Emax (%)
Answer format: numeric, % implied, no suffix.

For Cn1cc2c(-c3cc(F)c(Cn4cc(C(=O)NCC(O)C(F)(F)F)c5nccnc5c4=O)c(F)c3)cccc2n1 (stereo not shown) the compound record lists Emax as 53

For Cc1cc(-c2ccc(Cn3cc(C(=O)N[C@H]4CCC[C@@H]4O)c4ncccc4c3=O)c(F)c2)ccn1 the compound record lists Emax as 54

For Cn1ccc(-c2ccc(Cn3cc(C(=O)N[C@H]4CCCCC[C@@H]4O)c4occc4c3=O)c(F)c2)n1 the compound record lists Emax as 80

For Cn1cc2c(-c3cc(F)c(Cn4cc(C(=O)N[C@H]5CC[C@@H]5O)c5nccnc5c4=O)c(F)c3)cccc2n1 the compound record lists Emax as 57

For Cn1cc(-c2ccc(Cn3cc(C(=O)N[C@H]4CCC[C@@H]4O)c4ncccc4c3=O)cn2)cn1 the compound record lists Emax as 55

For Cn1cc(-c2ccc(Cn3cc(C(=O)N[C@H]4CCCCC[C@@H]4O)c4occc4c3=O)c(F)c2)cn1 the compound record lists Emax as 75

For Cn1ccc(-c2ccc(Cn3cc(C(=O)N[C@H]4CCCC[C@@H]4O)c4nccnc4c3=O)c(F)c2)n1 the compound record lists Emax as 67

====

Hi there, I'd appreciate the recorded Emax for every entry that follows.
Molecular target: human mAChR M1 (Homo sapiens, UniProt P11229)
Construct: host or cells: CHO-K1 cells (ATCC), stably transfected using Lipofectamine2000
Experiment: mAChR M1 cell-based functional assay (calcium mobilization), agonist activity upon compound addition
Settings: CHO-K1 cells expressing hM1; relative to the maximum for acetylcholine

For Cc1cc(-c2cc(F)c(Cn3cc(C(=O)N[C@H]4CCOC[C@@H]4O)c4ncccc4c3=O)c(F)c2)ccn1 the molecule record lists Emax as 13%

For Cc1cn2c(=O)n(Cc3ccc(-c4ccn(C)n4)cc3F)cc(C(=O)N[C@H]3CCCC[C@@H]3O)c2n1 the molecule record lists Emax as < 5%

For Cn1cc2c(-c3cc(F)c(Cn4cc(C(=O)N[C@H]5CCCC[C@@H]5O)c5occc5c4=O)c(F)c3)cccc2n1 the molecule record lists Emax as 9%

For Cc1cc(-c2cc(F)c(Cn3cc(C(=O)N[C@H]4CCCC[C@@H]4O)c4ncccc4c3=O)c(F)c2)ccn1 the molecule record lists Emax as < 5%

For Cc1nc(-c2ccc(Cn3cc(C(=O)N[C@H]4CCOC[C@@H]4O)c4ncccc4c3=O)cc2)co1 the molecule record lists Emax as 20%

For Cn1cc2c(-c3cc(F)c(Cn4cc(C(=O)NCC(C)(C)O)c5nccnc5c4=O)c(F)c3)cccc2n1 the molecule record lists Emax as < 5%

For Cn1cc(-c2ccc(Cn3cc(C(=O)N[C@H]4CCOC[C@@H]4O)c4ncncc4c3=O)c(F)c2)cn1 the molecule record lists Emax as < 5%

For Cn1ccc(-c2ccc(Cn3cc(C(=O)N[C@H]4CCC[C@@H]4O)c4ncn(C)c4c3=O)c(F)c2)n1 the molecule record lists Emax as < 5%

For Cn1cc(-c2ccc(Cn3cc(C(=O)N[C@H]4CCOC[C@@H]4O)c4sccc4c3=O)c(F)c2)cn1 the molecule record lists Emax as < 5%

For Cn1ccc(-c2ccc(Cn3cc(C(=O)N[C@H]4CCOC[C@@H]4O)c4occc4c3=O)c(F)c2)n1 the molecule record lists Emax as < 5%

For Cn1cc2c(-c3cc(F)c(Cn4cc(C(=O)NCC(O)C(F)(F)F)c5nccnc5c4=O)c(F)c3)cccc2n1 (centres unmarked) the molecule record lists Emax as < 5%

For Cc1cc(-c2ccc(Cn3cc(C(=O)N[C@H]4CCCC[C@@H]4O)c4ncccc4c3=O)c(F)c2)ccn1 the molecule record lists Emax as 6%

For Cn1ccc(-c2ccc(Cn3cc(C(=O)NC4CCOC(C)(C)C4)c4occc4c3=O)c(F)c2)n1 (centres unmarked) the molecule record lists Emax as < 5%

For Cc1cn2c(=O)n(Cc3c(F)cc(-c4cccc5nn(C)cc45)cc3F)cc(C(=O)N[C@H]3CCCC[C@@H]3O)c2n1 the molecule record lists Emax as < 5%

For Cn1cc(-c2ccc(Cn3cc(C(=O)NC4CC5(COC5)C4)c4nccn4c3=O)c(F)c2)cn1 the molecule record lists Emax as 17%

For Cn1cc(-c2ccc(Cn3cc(C(=O)N[C@H]4CCCC[C@@H]4O)c4nccnc4c3=O)c(F)c2)cn1 the molecule record lists Emax as 26%

For Cn1cc2c(-c3cc(F)c(Cn4cc(C(=O)N[C@H]5CCCCC[C@@H]5O)c5ncncc5c4=O)c(F)c3)cccc2n1 the molecule record lists Emax as < 5%

====

Target: human mAChR M1 (Homo sapiens)
Construct: host or cells: CHO-K1 cells (ATCC), stably transfected using Lipofectamine2000
Assay: mAChR M1 cell-based functional assay (calcium mobilization), PAM activity: increase in the EC20 acetylcholine response
Details: CHO-K1 cells expressing hM1; potentiation of EC20 acetylcholine response
attribute measured: Emax (%)
Answer format: numeric, % implied, no suffix.

For Cc1cc(-c2ccc(Cn3cc(C(=O)N[C@H]4CCOC[C@@H]4O)c4ncccc4c3=O)c(F)c2)ccn1 [Compound A26] the molecule record lists Emax as 75

For O=C(N[C@H]1CCOC[C@@H]1O)c1cn(Cc2ccc(-n3cccn3)cc2)c(=O)c2ccoc12 [Compound D2] the molecule record lists Emax as 57

For Cn1cc(-c2ccc(Cn3cc(C(=O)N[C@H]4CCC[C@@H]4O)c4nccn4c3=O)c(F)c2)cn1 [Compound B7] the molecule record lists Emax as 73

For Cn1cc(-c2ccc(Cn3cc(C(=O)N[C@H]4CCCCC[C@@H]4O)c4ncccc4c3=O)cn2)cn1 [Compound A18] the molecule record lists Emax as 60

For Cn1cc(-c2ccc(Cn3cc(C(=O)N[C@H]4CCOC[C@@H]4O)c4sccc4c3=O)c(F)c2)cn1 [Compound D29] the molecule record lists Emax as 37

For O=C(N[C@H]1CCOC[C@@H]1O)c1cn(Cc2c(F)cc(-c3cncs3)cc2F)c(=O)c2cccnc12 [Compound A49] the molecule record lists Emax as 65

For O=C(N[C@H]1CCCCC[C@@H]1O)c1cn(Cc2ccc(-n3cccn3)cc2)c(=O)c2nccnc12 [Compound A62] the molecule record lists Emax as 53

For O=C(N[C@H]1CCC[C@@H]1O)c1cn(Cc2ccc(-n3cccn3)cc2)c(=O)c2cccnc12 [Compound A14] the molecule record lists Emax as 64

For Cc1cccc(-c2cc(F)c(Cn3cc(C(=O)N[C@H]4CCOC[C@@H]4O)c4ncccc4c3=O)c(F)c2)c1 [Compound A31] the molecule record lists Emax as 70

For Cn1cc(-c2ccc(Cn3cc(C(=O)NC4CC5(COC5)C4)c4occc4c3=O)c(F)c2)cn1 [Compound D17] the molecule record lists Emax as 40

For Cn1cc2c(-c3cc(F)c(Cn4cc(C(=O)N[C@H]5CCCCC[C@@H]5O)c5nccnc5c4=O)c(F)c3)cccc2n1 [Compound A67] the molecule record lists Emax as 77

For Cn1cc(-c2ccc(Cn3cc(C(=O)N[C@H]4CCCCC[C@@H]4O)c4nccnc4c3=O)c(F)c2)cn1 [Compound A78] the molecule record lists Emax as 67

For O=C(N[C@H]1CCCCC[C@@H]1O)c1cn(Cc2ccc(-n3cccn3)cc2)c(=O)c2ccoc12 [Compound D5] the molecule record lists Emax as 58

For Cn1cc(-c2ccc(Cn3cc(C(=O)N[C@H]4CCC[C@@H]4O)c4nccnc4c3=O)c(F)c2)cn1 [Compound A79] the molecule record lists Emax as 51

For Cn1cc(-c2ccc(Cn3cc(C(=O)N[C@H]4CCCC[C@@H]4O)c4ncccc4c3=O)cc2)cn1 [Compound A86] the molecule record lists Emax as 52

For Cn1ccc(-c2ccc(Cn3cc(C(=O)N[C@H]4CCC[C@@H]4O)c4occc4c3=O)c(F)c2)n1 [Compound D8] the molecule record lists Emax as 32

For Cn1ccc(-c2ccc(Cn3cc(C(=O)N[C@H]4CCCC[C@@H]4O)c4occc4c3=O)c(F)c2)n1 [Compound D7] the molecule record lists Emax as 82

For O=C(N[C@H]1CCOC[C@@H]1O)c1cn(Cc2ccc(-n3cccn3)cc2)c(=O)c2nccnc12 [Compound A56] the molecule record lists Emax as 61

For Cn1cc2c(-c3cc(F)c(Cn4cc(C(=O)N[C@H]5CCCCC[C@@H]5O)c5ncncc5c4=O)c(F)c3)cccc2n1 [Compound A85] the molecule record lists Emax as 41

For Cn1cc2c(-c3cc(F)c(Cn4cc(C(=O)N[C@H]5CCCCC[C@@H]5O)c5sccc5c4=O)c(F)c3)cccc2n1 [Compound D33] the molecule record lists Emax as 42

Origin of measurements: patent US20220041606A1
